src = PubChem BioAssay (NCI)

system: HOP-92 NSCLC; experiment: NCI tumour cell line growth inhibition, 48 h
GI50 values for the compounds below.

Please review the entries below; each comes with its answer.
COc1ccc2c(c1OC)C(=O)O[C@@H]2[C@H]1c2c(c(Br)c3c(c2OC)OCO3)CCN1C; 21.7 µM
C=C1C(=O)O[C@H]2[C@H]1CC/C(CNC(=O)/C=C/c1ccc(Cl)cc1Cl)=C\CC[C@@]1(C)O[C@@H]21; 0.483 µM
Nc1ccccc1C#C/C=C\C#Cc1ccccc1F; 17.9 µM
O=CN1N=C(c2ccc(Nc3ccnc4cc(Cl)ccc34)cc2)CC1c1ccc(Cl)cc1 (stereo unspecified); > 100 µM

Query string: // query GI50 value for entry COc1ccc2c(c1)C=C1CSCC3=Cc4cc(OC)ccc4OC13O2
Result string: 4.6 µM

Query string: Same for O=C1c2ccn(CCCCN(CCO)CCO)c2C(=O)c2c1c(O)c1ccccc1c2O
Result string: 17.7 µM

Query string: Same for CNC(=O)c1cncc(/C=C/c2c(Cl)cccc2Cl)c1
Result string: 2.31 µM

Query string: Same for Cc1cc(Cl)ccc1Nc1nc(C(F)(F)F)ccc1C(=O)Nc1cccc(C(F)(F)F)c1
Result string: 2.21 µM

Query string: Same for O=c1[nH]nc(-c2ccccc2)c2c(-c3ccccc3)onc12
Result string: 0.933 µM

Query string: Same for Nc1cc(-c2ccccc2)n(C(=O)Nc2ccc(Oc3ccccc3)cc2)n1
Result string: 24.2 µM

Query string: Same for O=C1COCCN1c1ccc(NCc2cn(C(=O)c3ccc(Cl)cc3)c3ccccc23)cc1
Result string: 1.66 µM
